# Method: chemical genetic growth profiling, strain panel (AID 1159580);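 further: tested at 20 µM; growth read once vehicle control cultures reached saturation at 30 °C; 1 = growth at the plate median or of vehicle wells; lower values mean less growth of the strain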
# Assay conditions: S. cerevisiae deletion strains, growth OD, locus YDR054C, strain cdc34, hits give low values
The campaign covered roughly 5,500 compounds. About 2,000 (36%) were called active. Inconclusive results (about 18%) are left out. The list shows a part of the results.
# key: entry, value: normalized growth
Measure: normalized growth

structure=Cc1c(Cc2ccc(F)cc2)c(=O)oc2cc(O)ccc12 measure="normalized growth" recorded_measurement="0.975 (inactive)"
structure=Cc1cc(NNC(=O)c2ccccc2Cl)nc2c1c(C)nn2C measure="normalized growth" recorded_measurement="0.993 (inactive)"
structure=COc1ccc(NNC(=O)c2sc3ccccc3c2Cl)cc1 measure="normalized growth" recorded_measurement="0.923 (inactive)"
structure=Cc1nnsc1C(=O)Nc1cc(C(F)(F)F)cc(C(F)(F)F)c1 measure="normalized growth" recorded_measurement="0.951 (inactive)"
structure=O=C(Oc1ccc(C(F)(F)F)cc1[N+](=O)[O-])c1cccc(Cl)c1 measure="normalized growth" recorded_measurement="0.613 (active)"
structure=Cc1nnsc1C(=O)NNc1c(Cl)cccc1Cl measure="normalized growth" recorded_measurement="0.982 (inactive)"

###

# Method: chemical genetic growth profiling, strain panel (AID 1159580)
# Assay conditions: S. cerevisiae deletion strains, growth OD, locus YOL147C, strain pex11
About 2,000 (36%) of roughly 5,500 compounds were called active. Another 18% or so got no clear call; they are omitted. No stated cut-off is given here; in the data, active means normalized growth mostly below about 0.91 (no sharp cut-off); inconclusive means no clear call, values can overlap the other calls; inactive means mostly above about 0.92. The list shows a part of the results.
Possible outcomes: label 1 = active, label 0 = inactive

compound=C[N+](C)(C)CCCCCC[N+](C)(C)C group_label="label 0"
compound=Cc1c(O)c(C(=O)CC(C)C)c2oc3c(C(=O)CC(C)C)c(O)c(C)c(O)c3c2c1O group_label="label 0"
compound="CC1=C(CC(=O)O)c2cc(F)ccc2/C1=C\\c1ccc(S(C)=O)cc1 (stereo not given)" group_label="label 0"
compound=CC1(C)OC(=O)NC1=O group_label="label 0"
compound=CC(=O)c1c(O)c(C)c(O)c2c1oc1c(C(C)=O)c(O)c(C)c(O)c12 group_label="label 0"
compound="CC1(C)C(C=C(Cl)Cl)C1C(=O)OC(C#N)c1cccc(Oc2ccccc2)c1 (stereo not given)" group_label="label 0"
compound="CC(=O)NC1SCCC1=O (stereo not given)" group_label="label 0"
compound="CC(C(=O)O)c1cccc(Oc2ccccc2)c1 (stereo not given)" group_label="label 0"
compound=CCCCCCCCCCCCCCCC[N+](C)(C)C group_label="label 1"
compound=CCC(=O)O[C@H]1[C@H](O[C@@H]2[C@@H](C)[C@H](O[C@H]3C[C@@](C)(OC)[C@@H](O)[C@H](C)O3)[C@@H](C)C(=O)O[C@H](CC)[C@@](C)(O)[C@H](O)[C@@H](C)C(=O)[C@H](C)C[C@@]2(C)O)O[C@H](C)C[C@@H]1N(C)C group_label="label 0"
compound=COc1ccc2c(c1OC)C(=O)O[C@@H]2[C@H]1c2cc3c(cc2CCN1C)OCO3 group_label="label 0"
compound=COC1=C(OC)C(=O)C(C/C=C(\C)CC/C=C(\C)CC/C=C(\C)CC/C=C(/C)CC/C=C(\C)CC/C=C(\C)CC/C=C(\C)CC/C=C(\C)CC/C=C(\C)CCC=C(C)C)=C(C)C1=O group_label="label 0"
compound=COC1=CC(=O)C[C@@H](C)[C@]12Oc1c(Cl)c(OC)cc(OC)c1C2=O group_label="label 0"
compound="CN1CCCN=C1COC(=O)C(O)(c1ccccc1)C1CCCCC1 (stereo not given)" group_label="label 0"
compound=NCCSSCCN group_label="label 0"
compound="NCC1CCC(C(=O)O)CC1 (stereo not given)" group_label="label 0"
compound=S=c1nc[nH]c2nc[nH]c12 group_label="label 0"
compound="COc1cc(NC(C)CCCN)c2ncccc2c1 (stereo not given)" group_label="label 0"
compound=COc1ccc2c(c1OC)C(=O)O[C@H]2[C@H]1c2cc3c(cc2CCN1C)OCO3 group_label="label 0"
compound="C=C1C2CC[C@H]3[C@]4(C)C[C@H](OC5OC(CO)C(OS(=O)(=O)O)C(OS(=O)(=O)O)C5OC(=O)CC(C)C)C[C@@H](C(=O)O)[C@H]4CC[C@]3(C2)[C@H]1O (stereo not given in full)" group_label="label 0"

###

# Method: chemical genetic growth profiling, strain panel (AID 1159580);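 further: tested at 20 µM; growth read once vehicle control cultures reached saturation at 30 °C; 1 = growth at the plate median or of vehicle wells; lower values mean less growth of the strain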
# Assay conditions: S. cerevisiae deletion strains, growth OD, locus YDR137W, strain rgp1, hits give low values
Among all 5,500 compounds or so, about 2,000 (36%) were called active. Roughly 18% stayed inconclusive and do not appear here. The list shows a part of the results.
# key: entry, value: normalized growth
Measure: normalized growth

compound="CC1=C(/C=C/C(C)=C/C=C/C(C)=C/C=C/C=C(C)/C=C/C=C(C)/C=C/C2=C(C)C(=O)C(O)CC2(C)C)C(C)(C)CC(O)C1=O (centres undefined)" recorded_measurement="1.02 (inactive)"
compound=CC(=O)O[C@H]1[C@@H]2[C@@H](OC(=O)Cc3ccccc3)[C@@H](C)C[C@]2(OC(C)=O)C(=O)/C(C)=C/[C@H]2[C@H](CC[C@@]13CO3)C2(C)C recorded_measurement="0.85 (inactive)"
compound=Cc1[nH]c(C)c(Cl)c(=O)c1Cl recorded_measurement="1.01 (inactive)"
compound=CCCCCCCCCCCCCCCC(=O)OC/C=C(C)/C=C/C=C(C)/C=C/C1=C(C)CCCC1(C)C recorded_measurement="1.03 (inactive)"

###

# Method: chemical genetic growth profiling, strain panel (AID 1159580);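 further: tested at 20 µM; growth read once vehicle control cultures reached saturation at 30 °C; 1 = growth at the plate median or of vehicle wells; lower values mean less growth of the strain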
# Assay conditions: S. cerevisiae deletion strains, growth OD, locus YER123W, strain YCK3, hits give low values
Screen size: about 5,500 compounds; about 2,000 (36%) were called active. Inconclusive results (about 18%) are left out. Some of the results follow.
Measure: normalized growth

compound=O=S(=O)(Nc1cccc2nsnc12)c1cc(Cl)sc1Cl measure="normalized growth" recorded_measurement=0.944
compound=CC(C)(C)CN/C(C#N)=C(/C#N)NCc1cccc(Cl)c1 measure="normalized growth" recorded_measurement=0.947
compound=CC(=O)CSc1nnc(-c2ccc(C(C)(C)C)cc2)n1-c1ccc(Cl)cc1 measure="normalized growth" recorded_measurement=0.953
compound=O=S(=O)(Nc1cccc(CCc2ccccn2)c1)c1cc(Cl)c(Cl)cc1Cl measure="normalized growth" recorded_measurement=0.995
compound=COc1cc(NC(=S)NC(=O)c2ccccc2)c(OC)cc1Cl measure="normalized growth" recorded_measurement=0.963
compound=Cc1c(Cc2ccc(F)cc2)c(=O)oc2cc(O)ccc12 measure="normalized growth" recorded_measurement=0.99
compound="CS(=NC(=O)c1cccc(Cl)c1)c1ccc(OC(=O)c2ccc(Cl)cc2)cc1 (stereo unspecified)" measure="normalized growth" recorded_measurement=0.924
compound=Cc1nn(Cc2cccc(C(=O)Nc3ccc(Cl)cc3)c2)c(C)c1Br measure="normalized growth" recorded_measurement=0.946
compound=COc1cc(NC(=S)N(C)C)c(OC)cc1Cl measure="normalized growth" recorded_measurement=0.978
compound="O=C1C(=O)N(CN2CCc3c([nH]c4ccccc34)C2C(F)(F)F)c2ccc(F)cc21 (stereo unspecified)" measure="normalized growth" recorded_measurement=0.692
compound=N#CC(C#N)=C(SCc1c(Cl)cccc1Cl)SCc1c(Cl)cccc1Cl measure="normalized growth" recorded_measurement=0.999

###

# key: entry, value: normalized growth
# Method: chemical genetic growth profiling, strain panel (AID 1159580);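 further: tested at 20 µM; growth read once vehicle control cultures reached saturation at 30 °C; 1 = growth at the plate median or of vehicle wells; lower values mean less growth of the strain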
# Assay conditions: S. cerevisiae deletion strains, growth OD, locus YDL017W, strain CDC7, hits give low values
Screen size: about 5,500 compounds; about 2,000 (36%) were called active. Roughly 18% stayed inconclusive and do not appear here. The list shows a part of the results.
Measure: normalized growth

molecule=Cc1cc(Cl)ccc1NNC(=O)c1ccno1 recorded_measurement=0.97
molecule="Cc1ccc(OCC2SCCN2C(=O)c2ccc(C(F)(F)F)cc2)c([N+](=O)[O-])c1 (stereo unspecified)" recorded_measurement=1.03
molecule=O=C(Oc1ccc(C(F)(F)F)cc1[N+](=O)[O-])c1cccc(Cl)c1 recorded_measurement=0.947
molecule="CS(=NC(=O)c1cccc(Cl)c1)c1ccc(OC(=O)c2ccc(Cl)cc2)cc1 (stereo unspecified)" recorded_measurement=0.968
molecule="COc1cc2c(cc1OC)C(C)N(C(=O)c1sc3ccccc3c1Cl)CC2 (stereo unspecified)" recorded_measurement=0.98
molecule=Cc1ccc(-c2csc(-c3cccnc3)n2)c(C)c1 recorded_measurement=0.967
molecule=Cc1ccccc1C(=O)Oc1ccc(C(F)(F)F)cc1[N+](=O)[O-] recorded_measurement=0.975
molecule=COc1ccc(CN2CSC(=S)N(Cc3ccc(OC)cc3)C2)cc1 recorded_measurement=0.981
molecule=Cc1cc(C(=O)NNc2ccc(F)cc2F)no1 recorded_measurement=0.972
molecule=COc1ccc(NNC(=O)c2sc3ccccc3c2Cl)cc1 recorded_measurement=0.936
molecule=O=C(NNc1ccccc1F)c1ccno1 recorded_measurement=0.987
